target: hMC4R (Homo sapiens (Human)); assay: In vitro binding affinity assay using hMC4R (radioligand competition binding, [125I]-(Nle4, D-Phe7)-α-MSH); details: geometric mean, read-out: Ki (nM) geometric mean
Sequence (P32245 whole entry): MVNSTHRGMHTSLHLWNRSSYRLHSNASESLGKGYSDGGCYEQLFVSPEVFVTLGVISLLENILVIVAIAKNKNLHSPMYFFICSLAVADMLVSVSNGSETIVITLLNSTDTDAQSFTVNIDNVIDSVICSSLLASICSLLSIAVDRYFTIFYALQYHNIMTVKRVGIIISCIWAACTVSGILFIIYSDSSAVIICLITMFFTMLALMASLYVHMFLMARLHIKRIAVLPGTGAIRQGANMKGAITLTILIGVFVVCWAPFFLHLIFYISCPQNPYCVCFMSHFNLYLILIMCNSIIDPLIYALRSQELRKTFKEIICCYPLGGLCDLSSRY
REPORTED PROPERTY: Ki (nM)

I. Cc1nc2c(cc1-c1ncccn1)CC[C@@]1(CCN(C(=O)[C@H](C)c3cc(F)c(F)cc3F)C1)N2 (single isomer, unassigned) [Example 53]
II. Cc1nc2c(cc1-c1ncccn1)CC[C@@]1(CCN(C(=O)[C@H](C)c3cc(C(F)(F)F)ncc3Cl)C1)N2 (single isomer, unassigned) [Example 39]
III. Cc1nc2c(cc1-c1ncccn1)CC[C@@]1(CCN(C(=O)[C@H](C)c3cc(C(F)(F)F)ncc3F)C1)N2 (single isomer, unassigned) [Example 80]
Request: Sort the list above on Ki in ascending fashion. List each label, following the requested order.
Result: II, III, I
(II: 4.9 nM, III: 8 nM, I: 54 nM)
